Molecular target: T1, Extracellular domain (ECD) of the canine IL-4 receptor alpha-V5 epitope-AviTag-His Tag (canine)
T1 construct: monomeric form isolated by size exclusion; also called canine IL-4RA-V5-Avi-His; canine IL-4RA
T1 chain: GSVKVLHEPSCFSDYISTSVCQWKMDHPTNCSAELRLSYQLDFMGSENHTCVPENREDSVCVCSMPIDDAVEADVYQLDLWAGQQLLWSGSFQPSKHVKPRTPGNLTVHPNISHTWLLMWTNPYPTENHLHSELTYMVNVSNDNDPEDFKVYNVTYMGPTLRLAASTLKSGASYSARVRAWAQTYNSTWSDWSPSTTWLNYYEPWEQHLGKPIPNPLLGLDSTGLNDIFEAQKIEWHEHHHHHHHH
Experiment: SPR, Fab-SASA captured on BSA;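 also: biacore T200 SPR, Fab-SASA variants from E. coli conditioned medium captured on BSA-coated CM5 chip, canine IL-4RA injected 120 s then 420 s dissociation, 1:1 model fit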
quantity name: koff (s⁻¹)
Give a bare numeral; the unit s⁻¹ is implied.

binder | koff (s⁻¹)
TB640_005 Fab-SASA VL-G96P (Fab, V domains shown, not shown: SASA tag then His-tag) VH: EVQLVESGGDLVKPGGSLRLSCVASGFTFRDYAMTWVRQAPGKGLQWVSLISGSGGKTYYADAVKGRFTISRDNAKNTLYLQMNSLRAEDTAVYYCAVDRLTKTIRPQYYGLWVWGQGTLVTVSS VL: DIVMTQTPLSLSVSPGETASISCRSSQSLLYSIGYNYLDWYLQKPGQSPQGLIYLGSKRASGVPDRFSGSGSGTDFTLRISRVEANDTGVYYCMQPLQSPLTFGQGTKLEIKR | 0.000358
TB640_005 Fab-SASA VH-K103I (Fab, V domains shown, not shown: SASA tag then His-tag) VH: EVQLVESGGDLVKPGGSLRLSCVASGFTFRDYAMTWVRQAPGKGLQWVSLISGSGGKTYYADAVKGRFTISRDNAKNTLYLQMNSLRAEDTAVYYCAVDRLTITIRPQYYGLWVWGQGTLVTVSS VL: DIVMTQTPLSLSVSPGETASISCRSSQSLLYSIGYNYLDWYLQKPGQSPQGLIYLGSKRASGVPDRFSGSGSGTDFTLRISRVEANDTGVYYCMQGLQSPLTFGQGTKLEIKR | 0.000967

Entry under review: TB640_005 Fab-SASA VL-L30A (Fab, V domains shown, not shown: SASA tag then His-tag) VH: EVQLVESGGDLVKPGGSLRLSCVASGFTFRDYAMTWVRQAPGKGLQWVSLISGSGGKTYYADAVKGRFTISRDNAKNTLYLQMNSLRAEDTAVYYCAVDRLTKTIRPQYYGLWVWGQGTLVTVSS VL: DIVMTQTPLSLSVSPGETASISCRSSQSLAYSIGYNYLDWYLQKPGQSPQGLIYLGSKRASGVPDRFSGSGSGTDFTLRISRVEANDTGVYYCMQGLQSPLTFGQGTKLEIKR . Reported koff?
0.00187
